Biological target: human APJ receptor (Homo sapiens (Human))
Sequence (P35414 whole entry): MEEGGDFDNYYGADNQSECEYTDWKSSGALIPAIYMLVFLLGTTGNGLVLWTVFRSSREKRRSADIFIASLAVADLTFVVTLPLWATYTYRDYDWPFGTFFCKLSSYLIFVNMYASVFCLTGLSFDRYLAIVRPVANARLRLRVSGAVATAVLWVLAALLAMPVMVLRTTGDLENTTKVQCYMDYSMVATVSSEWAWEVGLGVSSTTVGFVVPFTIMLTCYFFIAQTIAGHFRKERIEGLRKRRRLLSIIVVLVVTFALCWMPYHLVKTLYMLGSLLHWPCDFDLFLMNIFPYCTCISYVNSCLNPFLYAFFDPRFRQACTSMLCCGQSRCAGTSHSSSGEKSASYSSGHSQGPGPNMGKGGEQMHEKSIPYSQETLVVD
Experiment: [35S]GTPγS binding assay on membranes from CHO cells stably expressing human APJ receptor
Settings: membranes of CHO cells stably expressing human APJ receptor, read-out: Activity hAPJ SPA EC50 IP
Description: The human APJ receptor was cloned by polymerase chain reaction and the gene encoding the receptor was subcloned in pFLAG-CMV™-3 expression vector (Sigma, Saint Louis, Mo. USA) in-house at Amgen. […] The optimum experimental conditions for the concentrations of GDP, MgCl2, and NaCl in the assay buffer were initially determined. […] Incubation was at RT for 90 min and the microplate was read using a ViewLux™ ultra HTS Microplate Imager (PerkinElmer, Inc.). […]
pEC50: −log10 of the molar value.
Everything with pEC50 lower than 8 is false; everything else, including exactly 8, is true.

Check this compound for pEC50 at or above 8: `COCC1(n2c(NS(=O)(=O)[C@@H](C)[C@H](C)c3cnc(C)cn3)nnc2-c2cccnc2)CC1`
false

Check this compound for pEC50 at or above 8: COc1cccc(-c2nnc(NS(=O)(=O)[C@@H](C)[C@H](C)c3ncc(Cl)cn3)n2[C@H](c2conc2C)C2CC2)n1 (mixture of isomers) [Example 228.0]
true

Check this compound for pEC50 at or above 8: COc1cccc(-c2nnc(NS(=O)(=O)[C@@H](C)[C@H](C)c3ncc(Cl)cn3)n2[C@H](C)c2cnn(C)c2)n1 (racemic) [Example 297.0]
true

Check this compound for pEC50 at or above 8: `COCC1(n2c(NS(=O)(=O)[C@@H](C)[C@@H](OC(C)C)c3ncc(C)cn3)nnc2-c2ccccn2)CC1`
false

Check this compound for pEC50 at or above 8: COc1cccc(-c2nnc(NS(=O)(=O)[C@@H](C)[C@H](OC)c3ncc(Cl)cn3)n2[C@@H](C)c2ncnn2C)n1 (single isomer, unassigned) [Example 249.0]
true

Check this compound for pEC50 at or above 8: COc1cccc(-c2nnc(NS(=O)(=O)[C@@H](C)[C@@H](OC(C)C)c3ncc(C)cn3)n2[C@@H](C)c2nc(C)no2)n1 (single isomer, unassigned) [Example 239.0]
true

###

target: human APJ receptor (Homo sapiens (Human)); assay: [35S]GTPγS binding assay on membranes from CHO cells stably expressing human APJ receptor; conditions: membranes of CHO cells stably expressing human APJ receptor, read-out: Activity hAPJ SPA EC50 IP
Response field label: string, one of T (EC50 strictly below 20 nM) or F.

Does this compound meet the criterion EC50 < 20 nM? CC[C@H]([C@@H]1CCCCO1)n1c(NS(=O)(=O)[C@@H](C)[C@H](OC)c2ncc(Cl)cn2)nnc1-c1cccc(OC)n1 (single isomer, unassigned) [Example 328.0]
T

Does this compound meet the criterion EC50 < 20 nM? `[2H]C1([2H])C(n2c(NS(=O)(=O)[C@@H](C)[C@@H](OC(C)C)c3ncc(C)cn3)nnc2-c2cccc(OC)n2)C1([2H])[2H]`
T

Does this compound meet the criterion EC50 < 20 nM? COc1cccc(-c2nnc(NS(=O)(=O)[C@@H](C)[C@@H](OC(C)C)c3ncc(C)cn3)n2[C@H](C)[C@@H]2CCCCO2)n1 (single isomer, unassigned) [Example 322.0]
T

Does this compound meet the criterion EC50 < 20 nM? `CCC(CC)n1c(NS(=O)(=O)[C@@H](C)[C@H](OC)c2ncc(Cl)cn2)nnc1-c1ccccn1`
T

Does this compound meet the criterion EC50 < 20 nM? `COCC(COC)n1c(NS(=O)(=O)[C@@H](C)[C@H](C)c2ncc(C)cn2)nnc1-c1cccc(OC)n1`
T

Does this compound meet the criterion EC50 < 20 nM? `Cc1cncc(-c2nnc(NS(=O)(=O)[C@@H](C)[C@@H](OC(C)C)c3ncc(Cl)cn3)n2C2CC2)c1`
F

Does this compound meet the criterion EC50 < 20 nM? COc1cccc(-c2nnc(NS(=O)(=O)[C@@H](C)[C@H](C)c3ncc(Cl)cn3)n2[C@H](C)c2csnn2)n1 (single isomer, unassigned) [Example 296.0]
T

Does this compound meet the criterion EC50 < 20 nM? `COc1cccc(-c2nnc(NS(=O)(=O)[C@@H](C)[C@@H](OC(C)C)c3ncc(Cl)cn3)n2C2CC2)n1`
T

Does this compound meet the criterion EC50 < 20 nM? COc1cccc(-c2nnc(NS(=O)(=O)[C@@H](C)[C@H](C)c3ncc(Cl)cn3)n2[C@@H](C)c2ccno2)n1 (single isomer, unassigned) [Example 215.0]
T

Does this compound meet the criterion EC50 < 20 nM? COc1cccc(-c2nnc(NS(=O)(=O)[C@@H](C)[C@@H](OC(C)C)c3ncc(C)cn3)n2[C@@H](C)c2c(C)noc2C)n1 (racemic) [Example 316.0]
F

Does this compound meet the criterion EC50 < 20 nM? CC[C@@H](c1c(C)noc1C)n1c(NS(=O)(=O)[C@@H](C)[C@H](C)c2ncc(Cl)cn2)nnc1-c1cccc(OC)n1 (single isomer, unassigned) [Example 225.0]
T

Does this compound meet the criterion EC50 < 20 nM? COc1cccc(-c2nnc(NS(=O)(=O)[C@@H](C)[C@H](C)c3ncc(Cl)cn3)n2[C@@H](C)c2ccno2)n1 (mixture of isomers) [Example 201.0]
T

Does this compound meet the criterion EC50 < 20 nM? `COc1cccc(-c2nnc(NS(=O)(=O)[C@@H](C)[C@H](OC)c3ncc(Cl)cn3)n2CCC(N)=O)n1`
F

Does this compound meet the criterion EC50 < 20 nM? `COC[C@@H](C)n1c(NS(=O)(=O)[C@@H](C)[C@H](OC)c2ncc(Cl)cn2)nnc1-c1cccc(OC)n1`
T

Does this compound meet the criterion EC50 < 20 nM? `COCC(COC)n1c(NS(=O)(=O)[C@@H](C)[C@H](OC)c2ncc(C)cn2)nnc1-c1cccc(OC)n1`
T

Does this compound meet the criterion EC50 < 20 nM? COc1cccc(-c2nnc(NS(=O)(=O)[C@@H](C)[C@H](OC)c3ncc(Cl)cn3)n2C[C@H]2CCC(C)(C)O2)n1 (single isomer, unassigned) [Example 290.0]
T

Does this compound meet the criterion EC50 < 20 nM? `COc1cc(Cn2c(NS(=O)(=O)[C@@H](C)[C@H](OC)c3cnc(C)cn3)nnc2-c2cccc(OC)n2)on1`
F

Does this compound meet the criterion EC50 < 20 nM? COc1cccc(-c2nnc(NS(=O)(=O)[C@@H](C)[C@H](OC)c3ncc(Cl)cn3)n2C[C@@H]2COCCO2)n1 (racemic) [Example 303.0]
F

Does this compound meet the criterion EC50 < 20 nM? CO[C@H](c1ncc(Cl)cn1)[C@H](C)S(=O)(=O)Nc1nnc(-c2cncc(C)c2)n1C[C@H]1CCCCO1 (mixture of isomers)
F

Does this compound meet the criterion EC50 < 20 nM? COc1cccc(-c2nnc(NS(=O)(=O)[C@@H](C)[C@@H](OC(C)C)c3ncc(C)cn3)n2[C@@H](C)c2ccon2)n1 (single isomer, unassigned) [Example 270.0]
T

Does this compound meet the criterion EC50 < 20 nM? `COCCn1c(NS(=O)(=O)[C@@H](C)[C@@H](OC(C)C)c2ncc(Cl)cn2)nnc1-c1ccccn1`
T

Does this compound meet the criterion EC50 < 20 nM? `COCC1(n2c(NS(=O)(=O)[C@@H](C)[C@H](OC)c3ncc(Cl)cn3)nnc2-c2cccnc2)CC1`
T

Does this compound meet the criterion EC50 < 20 nM? COc1cccc(-c2nnc(NS(=O)(=O)[C@@H](C)[C@H](OC)c3ncc(Cl)cn3)n2[C@@H](C)c2ccon2)n1 (single isomer, unassigned) [Example 264.0]
T

Does this compound meet the criterion EC50 < 20 nM? `COc1cccc(-c2nnc(NS(=O)(=O)[C@@H](C)[C@H](OC)c3cnc(C)cn3)n2Cc2cc(C(F)(F)F)no2)n1`
F
